Tested on: MS2 coat protein
measurementDescription: apparent KD of MS2 coat protein, switch ON state; designed switch direction (-1 OFF switch, 1 ON switch): 1; higher = weaker reporter binding
settings: FMN input: 0 or 200 uM; Eterna round: R93 (includes R88 designs)
metricName: apparent KD of MS2 coat protein
Please provide the amount together with its unit, number first.

Some sequences with recorded apparent KD of MS2 coat protein:
UAACAACAUGAGGAUCACCCAUGUCAAAUAAAUCGAGGAUAUGGGACGCAAGACGUCUUACCAGAAGGCGAAACAA [Leoratin] | 25.1 nM
AAAUAAAAAAAAAAGGAUAUUCAUGUAAAAACAUGAGGAUCACCCAUGUAAAAAAAUAAAAAUAAAAAGAAGGAAAAAUAAAAAA [SS2: 85 No MS2] | 77.1 nM
GGAGCUCCAGCGCAGGAUAUCGACCCAGGGACAUGAGGAUCACCCAUGUUCCAAAAAAAAUGGGUCGAGAAGGGCGUUGGAGAGCC [SAmeState2-III] | 11 nM

Fill in the blank: the reported apparent KD of MS2 coat protein of AGGAGACAUGAGGAUCACCCAUGUGAGAAGAGGCGAGGAUAUCGAAAGAAAGAAGAGAAACGAGAAGGCGCGAGUG [salish99-SS1-026] is ____.
28.1 nM

Same read-out for AAAAAACAUGAGGAUCACCCAUGUAAAUCUCAUGUAGGAUAUACAAAAAAAAAAAAAAAAGUAGAAGGACAAAAAA [Omei A variation 5] ?
125 nM

Item: AAAAAACAUGAGGAUCACCCAUGUAAAAAAAACGCAGGAUAUCCCUUUUUUAAAUGGGAGGGAGAAGGGUGAAAAA [Nob's Hobby 13 - Jieux - Same State 1]
22.4 nM

Queued: AAAAGACAUGAGGAUCACCCAUGUCAAAACGUGGGAGGAUAUGCAUGGAAAACAUGCUGUGCAGAAGGCCCGUGUC [SS1 - 21]
27.5 nM

Field entry: AAGAAACAUGAGGAUCACCCAUGUCAAGAGAGACUAGGAUAUCUGAAUUAAUUAAAUUAAGGAGAAGGAGUGAAAA [71%, Same state of confusion2, 2]
35.9 nM

Also UAAUAAUAAACCAAGGAUAUGGAGUUUCCAACAUGAGGAUCACCCAUGUUUAGCAUGAAAUCGAUCCAGAAGGUGGAGCCAAAUA [JR_SS002_Sub1005] ?
54.1 nM

Consider next the sequence AACCGGGAGAAGCAGGAUAUUGCCUCUUCAACAUGAGGAUCACCCAUGUAAGUAAAUUGACGAUACAAGAAGGGCUGCUCCUUAC [Raatgees] in the same way.
30.5 nM

// next record AUAAAACAUGAGGAUCACCCAUGUAGACACGUGGGAGGAUAUACUAGAUCGAAAGAUCUAGUAGAAGGCCUUCGUA [Mat - Same State 1 - JL mod - D94]
23.7 nM

Same again, this time with AGGAAACAUGAGGAUCACCCAUGUAAAAGGUGGUUAGGAUAUGCAAAAAGAAAAAGAAAAGCAGAAGGGACAAGAA [mod of top voted: #1]
351 nM

Field entry: AAAAGGCUAAACUAGGAUAUGGGUGUCUAAACAUGAGGAUCACCCAUGUGAUGGCAAAACAAAGCUCAGAAGGAGUGGUAGCCCA [Riquceri]
12.4 nM

meta.source: the supplement of paper PMC9170038
